Provide the recorded pIC50 for the entries that follow.
- tested_system: IgE-Tb / soluble IgE receptor FcεRIα with a Y131A mutation (Homo sapiens, UniProt P01854, N146Q/N252Q)
- Construct: fused on or other part: Terbium chelate (LanthaScreen amine-reactive) on IgE-Fc; Alexa Fluor 488 hydrazide on the oxidised glycans of sFcεRIα; Both are labels and no part of the key
- Sequence (P01854 104-427 N146Q/N252Q): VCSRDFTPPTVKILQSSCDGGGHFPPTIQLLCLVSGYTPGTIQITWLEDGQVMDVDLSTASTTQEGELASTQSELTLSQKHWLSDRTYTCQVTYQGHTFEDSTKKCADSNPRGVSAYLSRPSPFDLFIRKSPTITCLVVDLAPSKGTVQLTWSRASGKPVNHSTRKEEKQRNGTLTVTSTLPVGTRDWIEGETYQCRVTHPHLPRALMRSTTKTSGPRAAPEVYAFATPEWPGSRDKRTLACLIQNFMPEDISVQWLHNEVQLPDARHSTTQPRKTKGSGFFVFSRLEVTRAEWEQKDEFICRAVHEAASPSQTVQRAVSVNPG
- Sequence (P12319 26-201 Y156A partner): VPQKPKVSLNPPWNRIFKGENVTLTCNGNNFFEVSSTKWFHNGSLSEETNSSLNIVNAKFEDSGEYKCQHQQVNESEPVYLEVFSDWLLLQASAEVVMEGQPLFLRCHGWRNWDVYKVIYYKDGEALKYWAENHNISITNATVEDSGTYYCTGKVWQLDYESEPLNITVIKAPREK
- assay_notes: in vitro FRET assay: binding of IgE-Tb to receptor FcεRIα-Y131A-AF488 and its inhibition by compounds
- test_settings: 5 nM IgE-Tb, 25 nM FcεRIα-Y131A-AF488, 2 hours at room temperature; read-out: FRET IC50 range
pIC50: −log10 of the molar value.

[
  {
    "compound": "CC(C)(F)CNS(=O)(=O)c1c2c(cc3cnc(C4CC4)cc13)CC(NC1=CC(=O)C1(C)C)C2 (centres unmarked) [Example 98]",
    "test_value": "5.70 to 7.00"
  },
  {
    "compound": "CC(C)(F)CNS(=O)(=O)c1c2c(cc3cnc(C4CC4)cc13)C[C@@H](Nc1ccc(F)nc1)C2 [Example 73]",
    "test_value": "7.30 to 8.00"
  },
  {
    "compound": "CC(C)(F)CNS(=O)(=O)c1c2c(cc3cnc(C4CC4)cc13)C[C@H](n1cnc(C(N)=O)c1N)C2 [Example 90]",
    "test_value": "5.70 to 7.00"
  }
]

For each entry beneath this line, provide reported pIC50.
1. CC(C)(F)CNS(=O)(=O)c1c2c(cc3cnc(C4CC4)cc13)CC(NC(=O)c1cccnc1)C2 (centres unmarked) [Example 6]
2. CC1(C)CC1NS(=O)(=O)c1c2c(cc3cnc(C4CC4)cc13)CC(C(=O)Nc1cccnc1)C2 (centres unmarked) [Example 81]

Marked response:
7.00 to 7.30
5.70 to 7.00

Hi, could you look up pIC50 for each item in my list?
1. CNS(=O)(=O)c1ccc(N[C@@H]2Cc3cc4cnc(C5CC5)cc4c(S(=O)(=O)NCC(C)(C)F)c3C2)cn1 [Example 93]
2. Cn1nccc1C(=O)NC1Cc2cc3cnc(C4CC4)cc3c(S(=O)(=O)NCC(C)(C)F)c2C1 (centres unmarked) [Example 104]
3. CC(C)(F)CNS(=O)(=O)c1c2c(cc3cnc(C4CC4)cc13)C[C@@H](Nc1cncc(Oc3cc[nH]c(=O)c3)c1)C2 [Example 75]

Marked response:
["7.30 to 8.00", "7.00 to 7.30", "7.30 to 8.00"]

For every item in the list below, what is its measured pIC50?
1. CCNC(=O)NC1CCc2c1cc1cnc(C3CC3)cc1c2S(=O)(=O)NCC(C)C (centres unmarked) [Example 45]
2. CCNC(=O)NC1Cc2cc3cnc(C4CC4)cc3c(S(=O)(=O)NCC(C)C)c2C1 (centres unmarked) [Example 44]

Marked response:
1: 5.70 to 7.00; 2: 7.30 to 8.00

Field: pIC50. Fill in for each record below.
1. Cn1nc(O)cc1NC1Cc2cc3cnc(C4CC4)cc3c(S(=O)(=O)NCC(C)(C)F)c2C1 (centres unmarked) [Example 112]
2. CC(C)(F)CNS(=O)(=O)c1c2c(cc3cnc(C4CC4)cc13)CC(NC1=CC(=O)CCC1)C2 (centres unmarked) [Example 7]
3. COc1cc(Oc2cncc(N[C@@H]3Cc4cc5cnc(C6CC6)cc5c(S(=O)(=O)NCC(C)(C)F)c4C3)c2)ccn1 [Example 16]

Marked response:
1: 5.70 to 7.00; 2: 7.00 to 7.30; 3: 7.00 to 7.30
